Exercise: for every item that follows, state its recorded GI50.
System: HL-60(TB) leukemia
testMethodNotes: NCI tumour cell line growth inhibition, 48 h

If you can, please state the reported GI50 value of `NCCCCCCCCCCn1c2c(c3ccccc3c1=O)C(=O)c1ccccc1-2` .
1.77 µM

Here is the next compound: `C=C1C(=O)O[C@H]2[C@H]1CC/C(COC(=O)/C=C/C(=O)NCc1ccc(Cn3c(=O)sn(-c4ccccc4)c3=O)cc1)=C\CC[C@@]1(C)O[C@@H]21`
0.925 µM

# iterate: `CCC(CC)c1nc(Nc2cccc(OC)c2)c2ccccc2n1`
12 µM

Another compound to look at: `C[C@@]1(C(=O)Nc2ccc(F)nc2)CCCN1c1nc(Nc2cc(C3CC3)[nH]n2)c2cccn2n1`
0.00905 µM

Now the compound `COc1cc2c(cc1I)-c1c(cc(OC)c(OC)c1OC)CC[C@@H]2NC(C)=O`
0.461 µM

Try `CS(=O)(=O)O[C@H]1C(=O)N(c2cc3c4ccccc4ccc3c3ccccc23)[C@@H]1c1ccccc1` next.
0.532 µM

Please do the same for `COc1cc2c(cc1OCCCCCn1c(-c3ccc(OCc4ccccc4)cc3)nc3cc(N4CCOCC4)ccc31)N=C[C@@H]1CCCN1C2=O` as well.
2.31 µM

Next compound up: `Nc1nonc1C(=Nc1ccc(F)c(Cl)c1)NO`
62.8 µM

Would you kindly repeat that for `C#CCn1cnc2cnc(Nc3cccc(NC(=O)CCl)c3)nc21` ?
15.7 µM
